From: patent US7547729B2

target_of_assay: PPARγ (Homo sapiens)
Construct: expressed in transfected cells; host or cells: COS-7 cells
Sequence (P37231 238-503 limits assumed): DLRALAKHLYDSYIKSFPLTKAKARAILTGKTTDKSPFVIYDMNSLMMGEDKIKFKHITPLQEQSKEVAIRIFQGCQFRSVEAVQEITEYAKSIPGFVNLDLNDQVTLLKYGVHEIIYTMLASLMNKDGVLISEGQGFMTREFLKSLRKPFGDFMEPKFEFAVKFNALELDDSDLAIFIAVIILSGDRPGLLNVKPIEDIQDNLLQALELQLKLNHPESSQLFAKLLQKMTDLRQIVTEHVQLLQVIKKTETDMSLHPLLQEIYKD
measurement_notes: PPARγ/Gal4 transactivation system in COS-7 cells
Assay type: cell-based
test_conditions: 0.03 μM, 24 hours
measured_attribute: Induction factor

In [3]: df
Out[3]:
                                   compound  measurement
0  Cc1cc(/C=C/C(=O)c2c(C)c(C)c(C)c(C)c2C)cc(C)c1OC(C)(C)C(=O)O [compound 31]         4.87
1  Cc1cc(/C=C/C(=O)c2ccc(OCCSC3CCCCC3)cc2)cc(C)c1OC(C)(C)C(=O)O [compound 23]         5.04
2  CSc1c(C)cc(C(=O)/C=C/c2cc(C)c(OC(C)(C)C(=O)O)c(C)c2)cc1C [compound 13]         2.18

Need Induction factor for each of these compounds.
1. Cc1cc(/C=C/C(=O)c2ccc(Oc3ccccc3)cc2)cc(C)c1OC(C)(C)C(=O)O [compound 33]
2. CCCCCCSc1c(C)cc(C(=O)/C=C/c2cc(C)c(OC(C)(C)C(=O)O)c(C)c2)cc1C [compound 39]

stdout:
3.54
3.06
